Source listed as the CheMixHub drug solubility set.

# experiment-description: xn = mol fraction of the nth substance listed, in the solute-free solvent
# assay-context: 288.15 K; x2 = 0.5
solubility (g/100 g solution) for assorted compounds
Please state the value as a number alone, without comment.

These recorded examples may help you get a feel for the data.
compound	solubility (g/100 g solution)
CCCCOc1ccc(C(=O)CCN2CCCCC2)cc1.Cl + CCO + CCOC(C)=O	18.3
CC(=O)OC(c1ccccc1)C(Cl)(Cl)Cl (centres undefined) + CC(C)O + O	1.44
CC(=O)OC(c1ccccc1)C(Cl)(Cl)Cl (centres undefined) + CCO + O	0.569

// lookup solubility (g/100 g solution) for O=C1CCc2ccc(OCCCCN3CCN(c4cccc(Cl)c4Cl)CC3)cc2N1 + CCC(C)=O + CCOC(C)=O
1.23

* * *

solubility (g/100 g solution) for assorted compounds
# experiment-description: xn = mol fraction of the nth substance listed, in the solute-free solvent
# assay-context: 318.15 K; x2 = 0.1
Please state the value as a number alone, without comment.

These recorded examples may help you get a feel for the data.
compound	solubility (g/100 g solution)
O=C1CCc2ccc(OCCCCN3CCN(c4cccc(Cl)c4Cl)CC3)cc2N1 + CCC(C)=O + CC(C)=O	4.18
O=C1CCc2ccc(OCCCCN3CCN(c4cccc(Cl)c4Cl)CC3)cc2N1 + CCC(C)=O + CCOC(C)=O	2.76
O=C(O)c1ccc(C(=O)O)o1 + O + COCCOCCOC	1.53

Shift focus to the following entry.
// lookup solubility (g/100 g solution) for O=C1CCc2ccc(OCCCCN3CCN(c4cccc(Cl)c4Cl)CC3)cc2N1 + CCC(C)=O + CCCO
3.38

* * *

# experiment-description: xn = mol fraction of the nth substance listed, in the solute-free solvent
# assay-context: 308.15 K; x2 = 0.7
solubility (g/100 g solution) for assorted molecules
Please state the value as a number alone, without comment.

These recorded examples may help you get a feel for the data.
molecule	solubility (g/100 g solution)
O=C(O)c1ccc(C(=O)O)o1 + C1CCOC1 + O	7.09
COC1=CC(=O)CC(C)C12Oc1c(Cl)c(OC)cc(OC)c1C2=O (centres undefined) + CC(=O)CC(C)C + CC(C)O	1.31
O=C(O)c1ccc(C(=O)O)o1 + O + COCCOCCOC	6.42
COC1=CC(=O)CC(C)C12Oc1c(Cl)c(OC)cc(OC)c1C2=O (centres undefined) + CC(C)=O + CC(C)O	3.3
O=C1CCc2ccc(OCCCCN3CCN(c4cccc(Cl)c4Cl)CC3)cc2N1 + CCC(C)=O + CC(C)=O	3.54

// lookup solubility (g/100 g solution) for CC(=O)OC(c1ccccc1)C(Cl)(Cl)Cl (centres undefined) + CC(C)O + O
7.14

Another molecule to check: COC1=CC(=O)CC(C)C12Oc1c(Cl)c(OC)cc(OC)c1C2=O (centres undefined) + CCC(C)=O + CC(C)O
2.62

Another molecule to check: CCCCOc1ccc(C(=O)CCN2CCCCC2)cc1.Cl + CCO + CCOC(C)=O
36.6

Another molecule to check: CCCCOc1ccc(C(=O)CCN2CCCCC2)cc1.Cl + CCO + CCCCCC
35

* * *

# experiment-description: xn = mol fraction of the nth substance listed, in the solute-free solvent
# assay-context: 318.15 K; x2 = 0.8
solubility (g/100 g solution) for assorted compounds
Please state the value as a number alone, without comment.

// lookup solubility (g/100 g solution) for CC(=O)OC(c1ccccc1)C(Cl)(Cl)Cl (configuration not stated) + CC(=O)O + O
19.5

Another compound to check: COC1=CC(=O)CC(C)C12Oc1c(Cl)c(OC)cc(OC)c1C2=O (configuration not stated) + CCC(C)=O + CC(C)O
3.75

Another compound to check: COC1=CC(=O)CC(C)C12Oc1c(Cl)c(OC)cc(OC)c1C2=O (configuration not stated) + CC(=O)CC(C)C + CC(C)O
1.59

Another compound to check: O=C1CCc2ccc(OCCCCN3CCN(c4cccc(Cl)c4Cl)CC3)cc2N1 + CCC(C)=O + CCOC(C)=O
4.75

Another compound to check: CC(=O)OC(c1ccccc1)C(Cl)(Cl)Cl (configuration not stated) + CC(C)O + O
13.8

Another compound to check: O=C(O)c1ccc(C(=O)O)o1 + C1COCCO1 + O
2.96

Another compound to check: CCCCOc1ccc(C(=O)CCN2CCCCC2)cc1.Cl + CCO + CCOC(C)=O
47.6

Another compound to check: COC1=CC(=O)CC(C)C12Oc1c(Cl)c(OC)cc(OC)c1C2=O (configuration not stated) + CC(C)=O + CC(C)O
4.67

Another compound to check: CCCCOc1ccc(C(=O)CCN2CCCCC2)cc1.Cl + CO + C1CCOC1
62.5

Another compound to check: O=C(O)c1ccc(C(=O)O)o1 + O + COCCOC
5.35

Another compound to check: O=C(O)c1ccc(C(=O)O)o1 + O + COCCOCCOC
6.3

Another compound to check: O=C(O)c1ccc(C(=O)O)o1 + C1CCOC1 + O
6.51
